Recorded values, source patent US11795147B2.

# target_of_assay: Complex I
# experiment_description: Assay A: Determination of Complex I mediated ROS-inhibition (CI)
# condition_set: read-out: CI IC50; ROS generation by Complex I purified from bovine heart, Amplex Red/horse radish peroxidase readout, 8 point concentration-response
Would you kindly list IC50 for each of these molecules?

Ask: Entry CC1CCC(C)N1c1ccc2c(c1)/C(=C1\COCCN1)C(=O)N2C1CCOC1 (centres unmarked) : reported IC50 = ?
Reply: 464 nM

Ask: Entry `CCC(CC)Nc1ccc2c(c1)/C(=C1\COCCN1)C(=O)N2C1CCOCC1` : reported IC50 = ?
Reply: 43 nM

Ask: Entry CC(C)N1C(=O)/C(=C2/COCCN2)c2cc(NCC3CCOC3)ccc21 (centres unmarked) : reported IC50 = ?
Reply: 67 nM

Ask: Entry COC1COCCC1Nc1ccc2c(c1)/C(=C1\COCCN1)C(=O)N2C(C)C (centres unmarked) : reported IC50 = ?
Reply: 313 nM

Ask: Entry `CC(C)Nc1ccc2c(c1)/C(=C1\CCCCN1)C(=O)N2C(C)C` : reported IC50 = ?
Reply: 49 nM

----------
Would you kindly list pIC50 for each of these molecules?
# target_of_assay: Complex I
# experiment_description: Assay A: Determination of Complex I mediated ROS-inhibition (CI)
# condition_set: read-out: CI IC50; ROS generation by Complex I purified from bovine heart, Amplex Red/horse radish peroxidase readout, 8 point concentration-response
Worth noting: pIC50 values are minus log10 of concentrations stated in mol/L.

Ask: Entry `CC(C)Nc1ccc2c(c1)/C(=C1\CCN(C(C)C)CCN1)C(=O)N2C1CCOCC1` : reported pIC50 = ?
Reply: 6.76

Ask: Entry `CC(C)N1C(=O)/C(=C2/CCOCCN2)c2cc(N3CCCC3)ccc21` : reported pIC50 = ?
Reply: 6.15

Ask: Entry `CC(C)Nc1ccc2c(c1)/C(=C1\CN(C(C)C)CCN1)C(=O)N2C(C)C` : reported pIC50 = ?
Reply: 7.17

Ask: Entry `O=C1/C(=C2/COCCN2)c2cc(N3CCOCC3)ccc2N1C1CCOCC1` : reported pIC50 = ?
Reply: 6.62

Ask: Entry `CC(=O)N1CCC2(CC1)CN/C(=C1\C(=O)N(C(C)C)c3ccc(N4CCCC4)cc31)CO2` : reported pIC50 = ?
Reply: 6.63

Ask: Entry CC(C)N1C(=O)C(=C2CCOCC2)c2cc(NC3CCOC3)ccc21 (stereo not drawn) : reported pIC50 = ?
Reply: 6.08

Ask: Entry `CC(C)N1C(=O)/C(=C2/COCCN2)c2cc(NC3CCCC3)ccc21` : reported pIC50 = ?
Reply: 6.25

Ask: Entry CC(Nc1ccc2c(c1)/C(=C1\COCCN1)C(=O)N2C1COC1)C1CC1 (stereo not drawn) : reported pIC50 = ?
Reply: 6.65

Ask: Entry `CC(C)Nc1ccc2c(c1)/C(=C1\CCOCCN1)C(=O)N2C(C)C` : reported pIC50 = ?
Reply: 7.04

----------
# target_of_assay: Complex I
# experiment_description: Assay A: Determination of Complex I mediated ROS-inhibition (CI)
# condition_set: read-out: CI IC50; ROS generation by Complex I purified from bovine heart, Amplex Red/horse radish peroxidase readout, 8 point concentration-response
recorded_endpoint: pIC50
Worth noting: pIC50 values are minus log10 of concentrations stated in mol/L.

Ask: Entry `CC(C)N1C(=O)/C(=C2/COCCN2)c2cc(NC3CCN(C)CC3)ccc21` : reported pIC50 = ?
Reply: 7.29

Ask: Entry COCC(C)N1C(=O)/C(=C2/COCCN2)c2cc(NC(C)C)ccc21 (stereo not drawn) : reported pIC50 = ?
Reply: 7.16

Ask: Entry CC(Nc1ccc2c(c1)/C(=C1\COCCN1)C(=O)N2C1CCOCC1)c1ccccn1 (stereo not drawn) : reported pIC50 = ?
Reply: 7.66

Ask: Entry `CC(C)N1C(=O)/C(=C2/CCOCCN2)c2cc(NC3CCC3)ccc21` : reported pIC50 = ?
Reply: 7.06

Ask: Entry `CC(C)Nc1ccc2c(c1)/C(=C1\CN(C3CCOCC3)CCN1)C(=O)N2C(C)C` : reported pIC50 = ?
Reply: 7.21

Ask: Entry `CC(C)N1C(=O)/C(=C2/COCCN2)c2cc(N3CCCC3)ccc21` : reported pIC50 = ?
Reply: 6.06

Ask: Entry `O=C1C(=C2CCOCC2)c2cc(N3CCCC3)ccc2N1C1CCOCC1` : reported pIC50 = ?
Reply: 6.45

Ask: Entry CC(C)N1C(=O)/C(=C2/CCOCCN2)c2cc(N3C(C)CCC3C)ccc21 (stereo not drawn) : reported pIC50 = ?
Reply: 7.36

Ask: Entry `CC(C)Nc1ccc2c(c1)C(=C1CCOCC1)C(=O)N2C1CCOCC1` : reported pIC50 = ?
Reply: 6.27

Ask: Entry `CN1C(=O)/C(=C2/CCOCCN2)c2cc(N3CCCC3)ccc21` : reported pIC50 = ?
Reply: 6.52

Ask: Entry `CN(C)c1ccc2c(c1)/C(=C1\CCOCCN1)C(=O)N2C` : reported pIC50 = ?
Reply: 7.28

Ask: Entry `CC(C)Nc1ccc2c(c1)C(=C1CCOCC1)C(=O)N2C(C)C` : reported pIC50 = ?
Reply: 6.82

Ask: Entry CC1CCC(C)N1c1ccc2c(c1)/C(=C1\COCCCN1)C(=O)N2C1CCOCC1 (stereo not drawn) : reported pIC50 = ?
Reply: 6.94

Ask: Entry O=C(CCO)Nc1ccc2c(c1)/C(=C1\COCCN1)C(=O)N2C1CCOC1 (stereo not drawn) : reported pIC50 = ?
Reply: 6.03

Ask: Entry `O=C1/C(=C2/CCOCCN2)c2cc(NC3CCC3)ccc2N1C1CCOCC1` : reported pIC50 = ?
Reply: 6.63

Ask: Entry O=C1/C(=C2/COCCN2)c2cc(NC3CCOCC3F)ccc2N1C1CCOCC1 (stereo not drawn) : reported pIC50 = ?
Reply: 7.08

Ask: Entry CC(Nc1ccc2c(c1)/C(=C1\COCCN1)C(=O)N2C1CCOCC1)c1cnccn1 (stereo not drawn) : reported pIC50 = ?
Reply: 7.18

Ask: Entry CC(Nc1ccc2c(c1)/C(=C1\COCCN1)C(=O)N2C1CCOCC1)c1cncnc1 (stereo not drawn) : reported pIC50 = ?
Reply: 7.16

----------
Would you kindly list IC50 for each of these compounds?
# target_of_assay: Complex I
# experiment_description: Assay A: Determination of Complex I mediated ROS-inhibition (CI)
# Assay type: biochemical
# condition_set: read-out: CI IC50; ROS generation by Complex I purified from bovine heart, Amplex Red/horse radish peroxidase readout, 8 point concentration-response
Write it as a number; the unit nM goes unstated.

Ask: Enter reported IC50 observed with Complex I for `CC(C)N1C(=O)/C(=C2/COCCN2)c2cc(NC3COC3)ccc21`
Reply: 187

Ask: Enter reported IC50 observed with Complex I for COCC(C)N1C(=O)/C(=C2/COCCN2)c2cc(N3CCC(O)C3)ccc21 (centres unmarked)
Reply: 422

Ask: Enter reported IC50 observed with Complex I for CC(C)Nc1ccc2c(c1)/C(=C1\COCCN1)C(=O)N2C1CCOC1 (centres unmarked)
Reply: 172

Ask: Enter reported IC50 observed with Complex I for O=C1/C(=C2/CC3(CN2)COC3)c2cc(NC3CCOC3)ccc2N1C1CCOCC1 (centres unmarked)
Reply: 193

Ask: Enter reported IC50 observed with Complex I for `CCC(CC)Nc1ccc2c(c1)/C(=C1\COCCN1)C(=O)N2C1COC1`
Reply: 213

Ask: Enter reported IC50 observed with Complex I for `CC(=O)N1CCN/C(=C2\C(=O)N(C3CCOCC3)c3ccc(N4CCCC4)cc32)CC1`
Reply: 194

Ask: Enter reported IC50 observed with Complex I for `CC(=O)N1CCN/C(=C2\C(=O)N(C3CCOCC3)c3ccc(NC(C)C)cc32)C1`
Reply: 119

Ask: Enter reported IC50 observed with Complex I for `O=C1/C(=C2/COCCN2)c2cc(NC3CCC(F)(F)CC3)ccc2N1C1CCOCC1`
Reply: 89

----------
# target_of_assay: Complex I
# experiment_description: Assay A: Determination of Complex I mediated ROS-inhibition (CI)
# condition_set: read-out: CI IC50; ROS generation by Complex I purified from bovine heart, Amplex Red/horse radish peroxidase readout, 8 point concentration-response
Would you kindly list log10(IC50) for each of these compounds?
log10 IC50, nM

Ask: Entry Nc1ccc2c(c1)/C(=C1\CCCN1)C(=O)N2C1CCOCC1 [Compound 83] : reported log10(IC50) = ?
Reply: 1.04

Ask: Entry CC(C)Nc1ccc2c(c1)/C(=C1\COCCN1)C(=O)N2[C@H]1CCN(C(C)C)C1 [Compound 31] : reported log10(IC50) = ?
Reply: 1.91

Ask: Entry CC(Nc1ccc2c(c1)/C(=C1\COCCN1)C(=O)N2C(C)C)c1ccnn1C (centres unmarked) [Compound 17] : reported log10(IC50) = ?
Reply: 1.34

Ask: Entry CC(Nc1ccc2c(c1)/C(=C1\COCCN1)C(=O)N2C1CCOCC1)C1CCCC1 (centres unmarked) [Compound 61] : reported log10(IC50) = ?
Reply: 2.54

Ask: Entry O=C1/C(=C2/COCCN2)c2cc(NC3CCCC3)ccc2N1C1COC1 [Compound 65] : reported log10(IC50) = ?
Reply: 2.29
